Measured values drawn from the RNAGym collection of RNA variant scans (doi:10.1126/science.aae0568) for this set.

B1: tRNA (parent)
chain: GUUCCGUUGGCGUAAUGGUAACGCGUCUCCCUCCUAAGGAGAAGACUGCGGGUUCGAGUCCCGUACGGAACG

# Variants of: B1
# measurement.description: yeast fitness relative to wild type (ratio to wild type); higher = fitter; tRNA-Arg(CCU), competitive growth, 37 C, YPD
This sample holds only a part of the variants without activity.
# yeast fitness values compiled below

Example cases with answers are listed next.
mutation.string	yeast fitness
C27U U47A G68C	≤ 0.5
U19C C31U C33G G41A C49G U54C G63A	≤ 0.5

yeast fitness in this record for U2A C5A C55U : ≤ 0.5

yeast fitness in this record for C4U U16A A20U U35C G39C A42C C55G A70G : ≤ 0.5

yeast fitness in this record for A21G G50A C55U U64C : ≤ 0.5

yeast fitness in this record for C4G A14C G48C A69U A70G : ≤ 0.5

yeast fitness in this record for C22U U28A C55G A57C : ≤ 0.5

yeast fitness in this record for C5U U8C A20G C30A C61A G67U : ≤ 0.5

yeast fitness in this record for U2G C22A G25C C33U A69C : ≤ 0.5

yeast fitness in this record for U3A A15C G44A A57U : ≤ 0.5

yeast fitness in this record for U3A C5A G6C A37C A45U G68C : ≤ 0.5

yeast fitness in this record for C27A A36U A37U G48C C61U : ≤ 0.5
